Reported pEC50 values follow for various molecules
- test-target: Free fatty acid receptor 3 (Homo sapiens, UniProt O14843)
- Sequence (O14843 whole entry): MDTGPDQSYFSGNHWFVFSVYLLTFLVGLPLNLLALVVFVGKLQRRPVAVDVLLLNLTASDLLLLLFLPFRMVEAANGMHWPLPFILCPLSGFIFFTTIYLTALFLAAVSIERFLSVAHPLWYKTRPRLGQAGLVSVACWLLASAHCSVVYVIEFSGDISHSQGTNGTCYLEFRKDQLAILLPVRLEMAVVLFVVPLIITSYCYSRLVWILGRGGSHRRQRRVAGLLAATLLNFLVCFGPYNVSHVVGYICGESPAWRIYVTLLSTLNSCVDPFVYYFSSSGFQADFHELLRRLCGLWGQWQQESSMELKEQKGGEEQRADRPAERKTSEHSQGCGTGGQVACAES
- method-summary: Agonist activity at doxycyclin-induced GPR41 (unknown origin) overexpressed in HEK293 cells assessed as decrease in forskolin-induced cAMP level
Friendly reminder that pEC50 comes from taking -log10 of the concentration in mol/L.

molecule	observed-property	experimental-value
CC1=C(C(=O)Nc2cc(Cl)ccc2Cl)C(c2ccco2)C2=C(CCCC2=O)N1 (stereo unspecified)	pEC50	6.13

Task: Need pEC50 of CC1=C(C(=O)Nc2cc(Cl)ccc2Cl)C(c2ccc(-c3ccc(F)c(F)c3F)o2)C2=C(CCCC2=O)N1 (stereo unspecified) , thanks.
Output: 6.35

Task: Need pEC50 of CC1=C(C(=O)Nc2ccccc2C)C(c2ccc(-c3cc(F)c(F)c(F)c3)o2)C2=C(CCCC2=O)N1 (stereo unspecified) , thanks.
Output: 5.23

Task: Need pEC50 of CC1=C(C(=O)Nc2ccccc2C)C(c2ccc(-c3cc(F)cc(F)c3)o2)C2=C(CCCC2=O)N1 (stereo unspecified) , thanks.
Output: 6.17

Task: Need pEC50 of CC1=C(C(=O)Nc2ccccc2C)C(c2ccc(-c3ccc(F)c(F)c3F)o2)C2=C(CCCC2=O)N1 (stereo unspecified) , thanks.
Output: 5.26

Task: Need pEC50 of CC1=C(C(=O)Nc2ccccc2C)C(c2ccc(-c3ccc(F)c(F)c3)o2)C2=C(CCCC2=O)N1 (stereo unspecified) , thanks.
Output: 5.47
